# Reported Conditions: buffer; pH 7.4; 200.0 µM
Reported Endpoint: solubility kinetic (µg/mL)
Write the answer as a number in µg/mL, unit excluded.

{"Compound": "Nc1c(N(Cc2ccccc2)C(=O)COc2ccc(F)cc2Cl)c(=O)[nH]c(=O)n1Cc1ccccc1", "Unit Spec": "µg/mL", "solubility kinetic": 9.4}
{"Compound": "Cc1cc(Cl)ccc1OCC(=O)Nc1cccnc1", "Unit Spec": "µg/mL", "solubility kinetic": 35.3}
{"Compound": "CC(=O)c1ccc(S(=O)(=O)N2CCN(C(C)C(=O)N(C)Cc3ccccc3)CC2)cc1 (stereo not given)", "Unit Spec": "µg/mL", "solubility kinetic": 44}
{"Compound": "Cc1noc2ncnc(N3CCN(c4ccc(F)cc4)CC3)c12", "Unit Spec": "µg/mL", "solubility kinetic": 1.7}
{"Compound": "CCc1ccc(CN(C)Cc2nc(COc3ccccc3)no2)nc1", "Unit Spec": "µg/mL", "solubility kinetic": 36.7}
{"Compound": "COc1ccccc1C(=O)NC1CCN(C(=O)Nc2ccc(C)cc2)CC1", "Unit Spec": "µg/mL", "solubility kinetic": 46.8}

Q) Fill in the blank: the reported solubility kinetic of Cc1ccc(SCC(=O)NCCc2ccccc2)cc1 is ____.
A) 20.7

Q) Note, next up: CCNCC(=O)Nc1c(C)cccc1C
A) 25.2

Q) Note, next up: Cc1ccc(CN2CCN(CC(=O)NCc3ccccc3)CC2)cc1
A) 2.2

Q) Note, next up: Cc1noc(C)c1S(=O)(=O)N(Cc1ccccc1)C(C)C
A) 36.5

Q) Note, next up: COc1cccc(C(=O)Nc2ccc3[nH]c(=O)[nH]c3c2)c1OC
A) 27.7

###

# Reported Conditions: buffer; pH 7.4; 200.0 µM
Please use T whenever solubility kinetic is not below 40 µg/mL, and F whenever it is.

Q) Could you please find out whether C=CCOc1ccc(/C=C2\SC(=Nc3cccnc3)NC2=O)cc1 has solubility kinetic that meets 40 µg/mL or exceeds it?
A) F

Q) Note, next up: CC1CN(C(=O)COC(=O)Cc2c(Cl)cccc2Cl)CC(C)O1 (stereo unspecified)
A) T

###

# Reported Conditions: buffer; pH 7.4; 200.0 µM
Please use y whenever solubility kinetic is not below 30 µg/mL, and n whenever it is.

{"Compound": "CC(C(=O)OCC(=O)Nc1ccc(S(N)(=O)=O)cc1)N1C(=O)c2ccccc2C1=O (stereo unspecified)", "Label Class": "y"}
{"Compound": "O=C(CS(=O)(=O)c1ccccc1)N1CCCCC1", "Label Class": "y"}
{"Compound": "COc1ccccc1Nc1nc(C)nc2c1oc1ccccc12.Cl", "Label Class": "n"}
{"Compound": "N#CCCN(Cc1ccccc1)C(=O)Nc1ccccc1", "Label Class": "y"}
{"Compound": "O=C(O)CC(SCC(=O)NC1CCCc2ccccc21)C(=O)O (stereo unspecified)", "Label Class": "y"}
{"Compound": "CC(NC(=O)CNC(=O)c1ccco1)c1ccccc1 (stereo unspecified)", "Label Class": "y"}
{"Compound": "C[C@H](NS(=O)(=O)c1ccc(F)cc1)C(=O)OCC(=O)c1c(N)n(C)c(=O)n(C)c1=O", "Label Class": "y"}
{"Compound": "CCOCCCNCc1cc(Cl)ccc1OCC.Cl", "Label Class": "y"}

Q) Could you please find out whether O=S(=O)(Nc1ccc(Cl)cn1)c1cccs1 has solubility kinetic that meets 30 µg/mL or exceeds it?
A) y

Q) Note, next up: Cc1cc(-c2csc3nc[nH]c(=S)c23)cc(C)c1C
A) n

Q) Note, next up: O=CC1=C(N2CCOCC2)/C(=C\c2ccccc2)CC1
A) y

Where do the numbers come from? From PubChem BioAssay AID1996.
